Form field: log10(Kd) (one value per entry).
- studySystem: T1, TPP-2305 (hTNFRSF12Aaa28-80) (Human, UniProt Q9NP84 28-80)
- T1 construct: monomeric extracellular domain, bought; also called purified recombinant human TWEAKR protein; soluble monomeric TWEAKR
- experiment: SPR (Biacore T100), IgG captured, TPP-2305 injected, 1:1 model
// do not treat as linear: log10 of Kd, unit nM

Below are worked cases with known answers.
binder="136.1(TPP-2194) (antibody, mouse IgG2a, kappa, V domains shown, Murine IgG2a; variable domains from WO2009/020933 with constant region added) VH: EVKLEESGGGLVQPGGSMKLSCVASGFTFNNYWMSWVRQSPEKGLEWLAEIRLKSDNYATHYAESVKGKFTISRDDSKSRLYLQMNNLRAENTGIYYCTGGFADYFDYWGQGTTLTVSS VL: DIVLTQSPASLTVSLGQRATISCRASQSVSTSSYSYMQWYQQRPGQPPKLLIKYATNLDSGVPARFSGSGSGTDFTLNIHPVEEEDAATYYCQHSWEIPYTFGGGTKLEIKR" reportedmeasurement=-0.10
binder="ITEM-4 (antibody, V domains shown) VH: QVQLQQSGPELVKPGASVKMSCKASGYTFTDFIIAWVKQRTGQGLEWIGEIYPGTGRTYYSEKFRGKATLTADKSSNTAYMQLSSLTSVDSAVYFCARRTIYYDYDGDYWGQGTTLTVSS VL: DIVMTQAAFSNPVTLGTSASISCRSSKSLLHSNGITYLYWYLQKPGQSPQLLIYQMSNLASGVPDRFSSSGSGTDFTLRISRVEAEDVGVYYCAHNLELPWTFGGGTKLELK" reportedmeasurement=-0.15
binder="18.3.3(TPP-2193) (antibody, mouse IgG2a, kappa, V domains shown, Murine IgG2a; variable domains from WO2009/020933 with constant region added) VH: EVKLGESGGGLVQPGGSMKLSCVASGFPFTKYWMNWVRQSPEKGLEWVAEIRLKSDNYATHYAESAKGRFTISRDDSRSSVYLQMNNLRAEDTAIYYCSPTYADTMDYWGQGTSVTVSS VL: DIVLTQSPASLAVSLGQRATISCKASQSVSTSTYSYMQWYQQRPGQSPKLLIKYASKLDSGVPARFSGSGSGTDFTLNIHPVEEEDTATYYCQHSWELPYTFGGGTRLEIKR" reportedmeasurement=0.23
binder="TPP-2148 (antibody, human IgG1, kappa, V domains shown, Human IgG1) VH: EVQLLESGGGLVQPGGSLRLSCAASGFTFSPYPMMWVRQAPGKGLEWVSYISPSGGKTHYADSVKGRFTISRDNSKNTLYLQMNSLRAEDTAVYYCARGGDTYFDYFDYWGQGTLVTVSS VL: DIQMTQSPATLSASVGDRVTITCRASQSISSYLNWYQQKPGKAPKLLIYQASSLQSGVPSRFSGSGSGTDFTLTISSLQPEDFATYYCQQSYTSPFITFGPGTKVEIKR" reportedmeasurement=1.39

Kindly review the next binder as well.
Query block: Respond only with log10(Kd) recorded for TPP-2093 (antibody, human IgG1, kappa, V domains shown, Human IgG1) VH: EVQLLESGGGLVQPGGSLRLSCAASGFTFSPYPMMWVRQAPGKGLEWVSYISPSGGSTHYADSVKGRFTISRDNSKNTLYLQMNSLRAEDTAVYYCARGGDTYFDYFDYWGQGTLVTVSS VL: DIQMTQSPSSLSASVGDRVTITCRASQSISSYLNWYQQKPGKAPKLLIYQASSLQSGVPSRFSGSGSGTDFTLTISSLQPEDFATYYCQQSYTSPFITFGQGTKVEIKR
Result block: 1.34
